Assay: yeast display, Sf9 membrane polyspecificity reagent, FACS + sequencing; frameworks hold sequencing errors
propertyLabel: polyreactivity (PSR sort gate)

Below are worked cases with known answers.
{"columns": ["sequenceString", "polyreactivity (PSR sort gate)"],
 "data": [
  ["QVQLVESGGGLVQAGGSLRLSCAASGLIFGVNDMGWYRQAPGKERELVAAITSRGGSTYYADSVKGRFTISRDNAKNTVYLQMNSLKPEDTAVYYCAAKYAYYEPYSWRPQRTYNYWGQGTQVTVSS", "high polyreactivity"],
  ["QVQLVESGGGLVQAGGSLRLSCAASGSIFSPNAMGWNRQAPGKERELVAAISRRGGRTYYADSVKGRFTISRDNAKNTVYFQMNSLKPEDTAVYYCNAVWYSDTYTNPQYDYWGQGTQVTVSS", "high polyreactivity"],
  ["QVQLVESGGGLVQAGASLRLSCAASGRIFGVYAMGWYRQAPGKDRELVAGINGGDSTYYADSVKGRFTISRDNAKNTVYLQINSLKPEDTAVYYCAAQADESGSNYDYWGQGTQVTVSS", "low polyreactivity"],
  ["QVLLQESGGGLVQAGGSLRLSCAASGNIFSAGGMGWYRQAPVNERELVAGIGTGTSTNYADRVKGRFTISRDNAKNTVYLQMNSLKPEDTAVDYCAAAYYSGLSHWYWGQGTQVTVSS", "low polyreactivity"]
]}

Let's switch to this sequence now.
Quick check: polyreactivity (PSR sort gate) of `QDQLVESGGGLVQAGGCLRLSCAASGSIFIPYAMGSYRQAPGKERELVAAISLGDGNTYYADSVKGRFTISRDNAKYTVYLQMNSLKPEDTAVYYCNAVPRKFGDEYWGQGTQVTVSS` ?
low polyreactivity

====

Experiment: yeast display, Sf9 membrane polyspecificity reagent, FACS + sequencing; frameworks hold sequencing errors
propertyLabel: polyreactivity (PSR sort gate)

Worked examples, 4 sequences total:
{"columns": ["sequenceString", "polyreactivity (PSR sort gate)"],
 "data": [
  ["QVQLVESGGGLVQAGGSLRLSCAASGITFVRNALGWYRQAPGKEREFVAAISWSGGSTYYADSVKGRFTISRDNAKNTVYLQMNSLKPEDTAVYYCNAGSSYLSRFPLDYWGQGTQVTVSS", "high polyreactivity"],
  ["QVQLVESGGGLVQAGGSLRLSCAASGITFSFYAMGWYRPAPGKERELVAAINGRGGRTYYADSVKGRFTISRDNAKNTVYLQMNSLKPEDTAVYYCAAVVWRTDYDYWGQGTQVTVSS", "low polyreactivity"],
  ["QVQLVESGGGLVQAGGSLRLSCAASGSTIGWNAMGWYRQAPRKERELVAAISSSGGITYYADSVKGRYTISRDTAKNTVYLQMNSLKPDDTAVYDCAAEGDDDWVNYWGHGTQVTVSS", "low polyreactivity"],
  ["QFHLVESGGGLVQAGGSLRLSCAASGSNILYYVMGWYRQAPRKERELVAAITWDGGSTYYADSVKGRFTISRDNAKNTVYLELNSLIPEDTAVYYCNKVTTYSYYTEPYEYWGQGTQVTVSS", "low polyreactivity"]
]}

API: the following record is the query input.
Item under review: `QVQLVESGGGLVQAGGSLRLSSAASGRTFPSYDMGWYRQAPGKERELVAAISSSGGSTYYADSVKGRFTISRDNAKNTVYLQMNSLKPEDTAVYYCAAATPSGYYYWGQGTQVTVSS` . Reported polyreactivity (PSR sort gate)?
high polyreactivity

====

Assay: yeast display, Sf9 membrane polyspecificity reagent, FACS + sequencing; frameworks hold sequencing errors
propertyLabel: polyreactivity (PSR sort gate)

Record excerpt, results attached:
{"columns": ["sequenceString", "polyreactivity (PSR sort gate)"],
 "data": [
  ["QVQLQERGGRLVQAGGSLRLSCAASGSIFTQATMGCDRQAPGKERELVAAINFGSSTYYADSVKGRFTISRDNAKSTVYLQMNSLKPEDTAVYYCAVRALWYDFHDYWGQGTQVTVSS", "high polyreactivity"],
  ["QVQLVESGGGLVQAGGSLRLSCAASGRIFTYYAMGWYRQAPGKERELVAAISRRGGSTYYADSVKGRFTISRDNAKNTVYLQMNSLKPEDTAVYYCNAPTKAGGSHYWGQGTQVTVSS", "high polyreactivity"],
  ["QVQLVESGGGLFQAGGSLRISCAASGTFVTYMGWYRQAPGKERELVAAIRNGGSTNYADSVKGRFTISRDNAKNTVYLQMNSLKPDDTAVYYCAARVTYSRGYRGGSRNKYDYWGQGTQVTLSS", "low polyreactivity"],
  ["QVQLVESGGGLVQAGGSLRLSCAASGSIFLAYAMGWYRQAPGKERELVAAITSGGGRTYYADSVKGRFTISRDNAKNTVYLQMNSLKPEDTAVYYCAASYRAGQMWYDYWGQGTQVTVSS", "high polyreactivity"]
]}

Turning to the following sequence.
Given the sequence `QVQLVESGGGLVQAGGSLRLSCAATGRIFTYMGWYRQAPGKERELVAGISWRGTSTYYADSVKGRFTISRDNAKNTVYLQMNSLKPEDTAVYYCAARWAYHVRGDYWGQGTQVTVSS` , what is its reported polyreactivity (PSR sort gate)?
low polyreactivity

====

Assay: yeast display, Sf9 membrane polyspecificity reagent, FACS + sequencing; frameworks hold sequencing errors
propertyLabel: polyreactivity (PSR sort gate)

Solved entries:
{"columns": ["sequenceString", "polyreactivity (PSR sort gate)"],
 "data": [
  ["QVQVVESGGGLVQAGGSLRLRCAASGRSFVRNAMGWYRQAPGKEREFVAAINSGGSTYYADSVKGRFTISRDNAKNTVYLQMNSLKPEDTAVYYCAAELHIYYSWYWYDYWGQGTQVTVSS", "high polyreactivity"],
  ["QVQLVESGGGLVRAGGSLRLSCAASGSTFRQYAMGWYRQAPGKERDLVAAINWSGSSTYYADSVKGRFTISRDNAKNTVYLQMNSLKPEATAVYYCAARRVLATFQHSNSHYYWGQGTQVTVSS", "high polyreactivity"],
  ["QVQLVESGGGLVQAGGSLRLICAASGILVYNAMGWYRQAPGKERELVAAISARGGRKYYADSVKGRFTISRDNAKNTVYLQMYSLKTEDTAVYYCATLETSGVNYWGQGTQVTVSS", "high polyreactivity"],
  ["QVQLVESAGGLVQAGGSLRLSCHASGLTVRTYDMGWYRQEPGKERELVAAITTGGSTYYADSVKGRFSISRDNAKNTVYLQMNSLKPEDTAVYYCAADFIRYINRLLYDFWGQGTQVTVSS", "low polyreactivity"],
  ["QVQLVESGGGLVQAGGSLRLSCAASGYTFSHYDMGWYRQAPGKERELVAGITWSGGSTYYADSVKGRFTISRDNAKNTVYLQMNSLIPEDTSVYYCAAKYYWYYSYSGIPLFDYWGQGTQVTVSS", "low polyreactivity"],
  ["QVQLVESGGGLVQAGGSLRLSCAASGSIFDIYAMGWYRQAPGKERELVATITWDGVSTYYADSVKGRFTISRDNAKNTVYLQMNSLKPEDTAVYYCNVVVRYPSAYDYWGQGTQVTVSS", "high polyreactivity"]
]}

Look up polyreactivity (PSR sort gate) for the entries below, preserving their order.
1. QVQLVESGGGLVQAGGSLRLSCAASGRTFVYTMGWYRQAPGKERELVAAIRYSGGRTYYADSVKGRFTISRDNAQNTVYLQMNSLKPEDTAVYYCAARNYATGVRYDYWGQVTQVTVSS
2. QVQLVESGGGLVQAGGSLRLSCAASGFIFGYNAMGWYRQAPGKERELVAAITASGGSTYYADSVKGRFTISRDNAKNTVYLQMNSLKPEDTAVYYCATVLRKNGERVNRLYYWGQGTQVTVSS
3. QVQLVESGGGLVQAGGSLRLSCAASGRTFYPYAMGWYRQAPRKERELVAAISRSGGSTYADSVKGRFTISRDNAKNTVYLQMNSLKREDTAVYYCATRRKTYLSFNYDYWGQGTQVTVSS
4. QVQLVESGGGLVQAGGSLRLSCAASGITFQSNAMGWYRQAPGKERELVAGISGSGTSTYYADSVKGRFTISRDNAKNTVYLQMNSLKPEDTAVYYCAAAQSKYSFYWGDYYYWGQGTQVTVSS

1. high polyreactivity
2. high polyreactivity
3. low polyreactivity
4. high polyreactivity

====

Test: yeast display, Sf9 membrane polyspecificity reagent, FACS + sequencing; frameworks hold sequencing errors
propertyLabel: polyreactivity (PSR sort gate)

{"columns": ["sequenceString", "polyreactivity (PSR sort gate)"],
 "data": [
  ["QVQLVESGGGLVQAGGSLRLSCAASGRISLSNAMGWYRQAPGKEREFVAAITKRSDRTYYADSVKGRFTISRDNAKNTVYLQMNSLKPEDTAVYYCAAKPLFGTRDDYWGQGTHVTVSS", "low polyreactivity"],
  ["QVQLVESGGGLVQAGGSLRLSCAGSGSIFGRYVVGWYRLAPGKEREFVAAITYSGSSTYYADSVKWRFTISRDNAKNTVYVQINSLKPEDTAVYYCNTYPRSYYWMGYWGQGTQVTVSS", "high polyreactivity"],
  ["QVLLVEAGRGLVQAGGSLRLSCAASGSIVVGYAMGCYRQAPGKERELVATISYSGDSTYYADSVKGRFTISRDNAKNTVYLQMNSLNPEDSAVYYCATESNGSPYKGDYWGQGTQVTVSS", "low polyreactivity"],
  ["QVQLVESGGGLVQAGGSLRLSCAASGSIFTSYAMGWYRHAPGKERELVAAITSTGGSTYYADSVKGRFTISRDNAKNTVYLQMNSLKPEDTAVYYCNADGGTPYDYWGQGTQVTVSS", "low polyreactivity"],
  ["QVQLVESGGGLVQAGGSLRLSCAASGITFYDNAMGWYRQAPGKERELVAAIRSGDSTYYADSVKGRFTISRDNAKNTVYLQMNSLKPEDTAVYYCAARTPWVYYWRFYYWGQGTQVTVSS", "high polyreactivity"],
  ["QVQLVESGGGLVQAGGSLRLSCAASGSIFWYNTMGWYRQAPGKERELVASISWDGGTYYADSVKGRFTISRDNAKNTVYLQMNSLKPEDTAVYYCNVAWYWGYDYWGQGTQVTVSS", "low polyreactivity"]
]}

Dear colleague, could you send me polyreactivity (PSR sort gate) for each of the items below? Thanks.
1. QVQLVESGGGLVQAGGSLRLSCAASGFIFSWYAMGWSRQAPGKERELVAAISHDGGSTYYADSVKGRFTISRDNAKNTVYLQMNSLKPEDTAVYYCAAAFRAAGRTVRYYWGQGTQVTVSS
2. QVQLVESGVGLVQAGGSLRLSCAASGFLIRYYAMGWYRQAPGKERELVASIDWSGGNTYYADSVKGRFTSSRDKAKITVYFQMNSLKPEDTAVYSCNRRGMDWGQGTQVNVSS
3. QVQLVESGGGLVQAGGSLRLSCAASGSIFSYYAMGWYRQAPGKERELVAAISWGDDSTYYADSVKGRFTISRDNAKNTVYLQMNSLKPEDTAVYYCAADRVGWYRTFDYWGQGTQVTVSS

1. high polyreactivity
2. low polyreactivity
3. low polyreactivity

Would you be so kind as to report polyreactivity (PSR sort gate) for each listed record?
1. QVQLVESGGGLVQAGGSLRLSCAASGSIFVAYDMGCYRQAPGKESALVAAIDSVGRTNYADSVKGRFTISRDNAKNTVYLQMNSLQPEDTAVYYCNADQYYSFYDPDDYWGQGTQVTVSS
2. QVQLEESGGGLVQAGGSLRLSCAPSGLTFGGNAMGWYRQAPGKERELVAAISSGGSTNYADSVKGRFTISRDNAKNTDFLNMNSLKPEDTAVYYCAARDRPGNYFTEYGYWGQGTQVTVSS

low polyreactivity
low polyreactivity

Reference for the values: the nanobody polyreactivity screen of Harvey et al. (2022)
